pEC50 values for the compounds below.
- TESTED_SYSTEM: human M1 (Homo sapiens)
- Construct: expressed in transfected cells; host or cells: CHO cells
- ASSAY_REMARKS: M1 PAM assay (FLIPR intracellular calcium), human M1
- Assay type: cell-based
- CONDITION_CONTEXT: CHO human M1 cells, FLIPR Ca2+, with EC20 of acetylcholine; first value of the cell; read-out: hM1 EC50
pEC50: −log10 of the molar value.
PROPERTY_LABEL: pEC50

compound=Cn1cc(-c2ccc(Cn3nc(C(=O)N[C@H]4CCCC[C@@H]4O)c4c(F)ccc(F)c43)c(F)c2)cn1 numeric_result=7.37
compound=CCOC(=O)Nc1ccc(Cn2cc(C(=O)N[C@H]3CCCC[C@@H]3O)c3c(F)cccc32)cc1 numeric_result=7.37
compound=CNC(=O)c1ccc(Cn2cc(C(=O)NC3(C)CCOCC3)c3c(F)cccc32)cc1 numeric_result=6.44
compound=CNC(=O)c1ccc(Cn2cc(C(=O)NC3CC3)c3c(F)cccc32)cc1 numeric_result=6.90
compound=CNC(=O)c1ccc(Cn2cc(CC(=O)N[C@H]3CCCC[C@@H]3O)c3c(F)cccc32)cc1 numeric_result=7.27
compound=Cc1cn(-c2ccc(Cn3cc(C(=O)N[C@H]4CCCC[C@@H]4O)c4c(F)cccc43)cc2)cn1 numeric_result=7.81
compound="Cn1cc(-c2ccc(Cn3cc(C(=O)N[C@H]4CCOC[C@@H]4O)c4c(F)cccc43)c(F)c2)cn1 (mixture of isomers) [Example 6]" numeric_result=7.15

###

- TESTED_SYSTEM: human M1 (Homo sapiens, UniProt P11229)
- Construct: expressed in transfected cells; host or cells: CHO cells
- ASSAY_REMARKS: M1 PAM assay (FLIPR intracellular calcium), human M1
- Type: cell-based
- CONDITION_CONTEXT: CHO human M1 cells, FLIPR Ca2+, with EC20 of acetylcholine; first value of the cell; read-out: hM1 EC50
PROPERTY_LABEL: log10(EC50) (log10 of the value in nM)

molecule=O=C(N[C@H]1CCCC[C@@H]1O)c1cn(Cc2ccc(-n3ccnc3)nc2)c2cccc(F)c12 numeric_result=1.88
molecule=Cn1cc(-c2ccc(Cn3cc(C(=O)N[C@@H]4CCCC[C@H]4O)c4c(F)cccc43)c(F)c2)cn1 numeric_result=1.59
molecule=Cn1cc(-c2ccc(Cn3cc(C(=O)NC[C@H]4CCCO4)c4c(F)cccc43)cc2)cn1 numeric_result=2.41
molecule="CNC(=O)c1ccc(Cn2cc(C(=O)NC3CCOC(C)C3)c3c(F)cccc32)cc1 (centres unmarked)" numeric_result=1.28
molecule=Cn1cc(-c2ccc(Cn3cc(C(=O)NC4CCOCC4)c4c(F)ccc(F)c43)cc2)cn1 numeric_result=1.43
molecule=O=C(N[C@H]1CCOC[C@@H]1O)c1cn(Cc2ccc(-c3nccs3)cc2)c2cccc(F)c12 numeric_result=1.23
molecule=O=C(N[C@H]1CCCC[C@@H]1O)c1cn(CC2CCN(c3ccccn3)CC2)c2cccc(F)c12 numeric_result=2.29
molecule=Cn1cc(-c2ccc(Cn3cc(C(=O)NC4CCOCC4)c4c(F)cccc43)c(F)c2)cn1 numeric_result=1.78

###

- TESTED_SYSTEM: ratM1 (Rattus norvegicus)
- Construct: expressed in transfected cells; host or cells: CHO cells (stated generally for the assay, not specifically for rat M1)
- Sequence (P08482 whole entry): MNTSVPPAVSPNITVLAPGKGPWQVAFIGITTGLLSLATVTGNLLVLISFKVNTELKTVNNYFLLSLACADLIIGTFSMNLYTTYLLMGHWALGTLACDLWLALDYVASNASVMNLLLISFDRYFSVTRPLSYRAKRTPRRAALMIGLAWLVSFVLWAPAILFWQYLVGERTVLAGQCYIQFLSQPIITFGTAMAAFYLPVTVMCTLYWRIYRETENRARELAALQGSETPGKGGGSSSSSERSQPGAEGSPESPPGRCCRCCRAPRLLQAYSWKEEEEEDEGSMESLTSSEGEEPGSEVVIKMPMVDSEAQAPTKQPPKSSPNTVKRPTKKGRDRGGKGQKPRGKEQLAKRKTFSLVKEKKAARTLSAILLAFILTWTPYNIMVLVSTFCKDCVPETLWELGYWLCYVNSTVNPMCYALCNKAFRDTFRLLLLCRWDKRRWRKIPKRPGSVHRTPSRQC
- ASSAY_REMARKS: M1 PAM assay (FLIPR intracellular calcium), rat M1
- Format: cell-based
- CONDITION_CONTEXT: rat M1, FLIPR Ca2+; second value of the cell; read-out: ratM1 EC50
pEC50: −log10 of the molar value.
Kindly return Met if reported pEC50 is no lower than 7; return Not met if it is lower.

compound="Cn1cc(-c2ccc(Cn3cc(CC(=O)N[C@H]4CCCC[C@@H]4O)c4c(F)cccc43)c(F)c2)cn1 [Example 93]" tested_system="ratM1 (Rattus norvegicus)" classification="Not met"
compound="Cn1cc(-c2ccc(Cn3cc(C(=O)NC4CCOCC4)c4c(F)cccc43)cn2)cn1 [Example 68]" tested_system="ratM1 (Rattus norvegicus)" classification="Not met"
compound="Cn1cc(-c2ccc(Cn3cc(C(=O)NCC4CCO4)c4c(F)cccc43)cc2)cn1 (centres unmarked) [Example 14]" tested_system="ratM1 (Rattus norvegicus)" classification="Not met"
compound="Cn1cc(-c2ccc(Cn3cc(C(=O)N[C@@H]4C[C@@H]5CC[C@H]4O5)c4c(F)cccc43)c(F)c2)cn1 (relative stereo) [Example 104]" tested_system="ratM1 (Rattus norvegicus)" classification="Not met"
compound="Cn1cc(-c2ccc(Cn3cc(C(=O)NC4CCOCC4O)c4c(F)c(F)c(F)c(F)c43)cc2)cn1 (single isomer, unassigned) [Example 62]" tested_system="ratM1 (Rattus norvegicus)" classification="Not met"
compound="O=C(N[C@H]1CCCC[C@@H]1O)c1cn(Cc2ccc(N3CCCC3)nc2)c2cccc(F)c12 [Example 162]" tested_system="ratM1 (Rattus norvegicus)" classification="Not met"
compound="CNC(=O)c1ccc(Cn2cc(C(=O)NC3CCOCC3)c3c(F)cccc32)cc1 [Example 132]" tested_system="ratM1 (Rattus norvegicus)" classification=Met
compound="O=C(N[C@H]1CCCC[C@@H]1O)c1cn(Cc2cnc(-c3ccccc3)nc2)c2cccc(F)c12 [Example 139]" tested_system="ratM1 (Rattus norvegicus)" classification="Not met"
compound="Cn1cc(-c2ccc(Cn3cc(CC(=O)N[C@H]4CCOC[C@@H]4O)c4c(F)cccc43)c(F)c2)cn1 [Example 92]" tested_system="ratM1 (Rattus norvegicus)" classification=Met
compound="Cn1cc(-c2ccc(Cn3cc(C(=O)NC4CCCOC4)c4c(F)cccc43)c(F)c2)cn1 (centres unmarked) [Example 19]" tested_system="ratM1 (Rattus norvegicus)" classification="Not met"
compound="CNC(=O)c1ccc(Cn2cc(CC(=O)N[C@H]3CCCC[C@@H]3O)c3c(F)cccc32)cc1 [Example 99]" tested_system="ratM1 (Rattus norvegicus)" classification="Not met"
compound="O=C(N[C@H]1CCOC[C@@H]1O)c1cn(Cc2ccc(-n3cncn3)nc2)c2cccc(F)c12 [Example 78]" tested_system="ratM1 (Rattus norvegicus)" classification="Not met"
compound="Cn1cc(-c2ccc(Cn3cc(C(=O)N[C@H]4CCCC[C@@H]4O)c4c(F)c(F)c(F)c(F)c43)c(F)c2)cn1 [Example 26]" tested_system="ratM1 (Rattus norvegicus)" classification="Not met"
compound="Cn1cc(-c2ccc(Cn3cc(C(=O)N[C@H]4CCCC[C@@H]4O)c4c(F)cccc43)cn2)cn1 [Example 30]" tested_system="ratM1 (Rattus norvegicus)" classification=Met
compound="CNC(=O)c1ccc(Cn2cc(C(=O)NC3CCCCC3(F)F)c3c(F)cccc32)cc1 (centres unmarked) [Example 120]" tested_system="ratM1 (Rattus norvegicus)" classification=Met
compound="COc1ccc(F)c2c(C(=O)NC3CCOCC3)cn(Cc3ccc(-c4cnn(C)c4)cc3F)c12 [Example 152]" tested_system="ratM1 (Rattus norvegicus)" classification="Not met"
compound="CNC(=O)c1ccc(Cn2cc(C(=O)NC)c3c(F)cccc32)cc1 [Example 110]" tested_system="ratM1 (Rattus norvegicus)" classification="Not met"
compound="Cn1cc(-c2ccc(Cn3cc(C(=O)N[C@H]4CCCC[C@@H]4O)c4c(F)ccc(C5CC5)c43)cc2)cn1 [Example 105]" tested_system="ratM1 (Rattus norvegicus)" classification="Not met"
compound="Cn1cc(-c2ccc(Cn3cc(C(=O)N[C@H]4CCCC[C@@H]4O)c4c(F)cc(F)cc43)c(F)c2)cn1 [Example 5]" tested_system="ratM1 (Rattus norvegicus)" classification="Not met"
compound="CNC(=O)c1ccc(Cn2cc(C(=O)NC3CCCCC3)c3c(F)cccc32)cc1 [Example 114]" tested_system="ratM1 (Rattus norvegicus)" classification=Met
compound="Cn1cc(-c2ccc(Cn3cc(C(=O)N[C@H]4CCCC[C@@H]4O)c4c(F)c(F)c(F)c(F)c43)cc2)cn1 [Example 53]" tested_system="ratM1 (Rattus norvegicus)" classification=Met
compound="O=C(N[C@H]1CCCC[C@@H]1O)c1cn(Cc2ccc(-c3ccn[nH]3)cc2)c2cccc(F)c12 [Example 155]" tested_system="ratM1 (Rattus norvegicus)" classification=Met
compound="Cn1cc(-c2ccc(Cn3cc(C(=O)N[C@H]4CCOC[C@@H]4O)c4c(F)cccc43)cc2)cn1 (single isomer, unassigned) [Example 55]" tested_system="ratM1 (Rattus norvegicus)" classification=Met
compound="Cn1cc(-c2ccc(Cn3cc(C(=O)NC4CC(F)(F)C4)c4c(F)cccc43)cc2)cn1 [Example 9]" tested_system="ratM1 (Rattus norvegicus)" classification="Not met"

###

- TESTED_SYSTEM: human M1 (Homo sapiens, UniProt P11229)
- Construct: expressed in transfected cells; host or cells: CHO cells
- Sequence (P11229 1-460): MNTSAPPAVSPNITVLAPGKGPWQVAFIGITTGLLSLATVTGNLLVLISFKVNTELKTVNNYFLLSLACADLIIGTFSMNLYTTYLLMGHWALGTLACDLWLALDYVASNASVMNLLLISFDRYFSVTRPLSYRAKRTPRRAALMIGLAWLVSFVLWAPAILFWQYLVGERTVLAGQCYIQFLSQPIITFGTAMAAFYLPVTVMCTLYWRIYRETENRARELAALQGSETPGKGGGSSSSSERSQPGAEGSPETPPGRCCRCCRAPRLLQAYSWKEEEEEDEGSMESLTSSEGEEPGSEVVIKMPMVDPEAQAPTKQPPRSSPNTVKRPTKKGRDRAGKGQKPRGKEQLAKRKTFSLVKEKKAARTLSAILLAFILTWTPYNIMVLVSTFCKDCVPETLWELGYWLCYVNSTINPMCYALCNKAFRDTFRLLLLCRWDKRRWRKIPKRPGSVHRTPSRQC
- ASSAY_REMARKS: M1 PAM assay (FLIPR intracellular calcium), human M1
- Assay type: cell-based
- CONDITION_CONTEXT: CHO human M1 cells, FLIPR Ca2+, with EC20 of acetylcholine; first value of the cell; read-out: hM1 EC50
EC50 values for the compounds below.
PROPERTY_LABEL: EC50 (nM)

molecular_string=CNC(=O)c1ccc(Cn2cc(C(=O)NC3CCCCCC3)c3c(F)cccc32)cc1 property_label=EC50 value_unit=nM numeric_result=50
molecular_string=CNC(=O)c1ccc(Cn2cc(C(=O)NC3CCSCC3)c3c(F)cccc32)cc1 property_label=EC50 value_unit=nM numeric_result=11
molecular_string=CNC(=O)c1ccc(Cn2cc(C(=O)NC3CCC3)c3c(F)cccc32)cc1 property_label=EC50 value_unit=nM numeric_result=72
molecular_string=Cn1cc(-c2ccc(Cn3cc(C(=O)N[C@H]4CCC[C@H]4O)c4c(F)cccc43)c(F)c2)cn1 property_label=EC50 value_unit=nM numeric_result=46.3

// provenance: patent US9708259B2
